System: SW-620 colon
Assay: NCI-60 one-dose screen, 48 h (100 = growth as untreated, 0 = no growth, -100 = all killed)
Conditions: 10 µM unless noted
Experimental: Growth inhibition of the SW-620 human tumor cell line is measured as a screen for anti-cancer activity. Cells are grown in 96 well plates and exposed to the test compound for 48 hours. Compounds are tested at a single concentration, which is 10^-5 M for most compounds. The reported endpoint is percent growth (GI% or GIPRCNT), where numbers from 0 - 100% represent growth inhibition, and numbers from -100% - 0 represent cell death. For example, a value of 40 represents 60% growth inhibition. […]
This is part of a sample that, as a whole, favours compounds with a hit. Of some 83,000 tested, about 20% had one in any assay.
endpoint_label: growth (%)
Write down the numeric answer in % and omit the unit.

{"compound": "C#CCOc1cccc(Nc2c(Cl)c(CCl)nc3ccc(Oc4ccccc4)cc23)c1", "scale_unit": "%", "reported_measurement": 20.6}
{"compound": "COc1cc2nc3cc([N+](=O)[O-])ccc3c(NCCCNCCO)c2cc1OC", "scale_unit": "%", "reported_measurement": -25}
{"compound": "CN1CCN(Cc2ccc(NC(=O)c3cncc(C#Cc4cnc(N)c5ncccc45)c3)cc2Cl)CC1", "scale_unit": "%", "reported_measurement": 2.96}

// query Any idea what growth was measured for Cc1ccc(C2(C)NC(=O)N(CC(=O)Nc3cccc(C)c3)C2=O)cc1 (stereo not given) ?
// result 106

// query growth lookup needed for CC(=O)OCC(=O)O[C@@H]1C[C@]2(C(C)C)O[C@@]1(C)[C@@H]1CC[C@@H](C)[C@H]1[C@@H]2OC(=O)/C=C/c1ccccc1 , thanks.
// result 104

// query Would you kindly share the measured growth for CNC(=O)c1cc(Oc2ccc3nc(NC(=O)Nc4ccc(F)cc4F)sc3c2)ccn1 ?
// result 99.9

// query // growth lookup, key: CCOC(=O)/C(=C\c1ccccc1Cl)P(=O)(OCC)OCC
// result 46.6

====

Test system: RPMI-8226 leukemia
Experiment: NCI-60 one-dose screen, 48 h
Details: 10 µM unless noted
This is part of a sample that, as a whole, favours compounds with a hit. Of some 83,000 tested, about 20% had one in any assay. The source made the active and inactive calls. Rule for the calls: active = growth percent below 10; inactive = the rest.
The categories you may choose from are TRUE for active, FALSE for inactive

{"molecule": "Cc1ccc(C2(C)NC(=O)N(CC(=O)Nc3cccc(C)c3)C2=O)cc1 (stereo not given)", "discrete_label": "FALSE"}
{"molecule": "O=C1/C(=C/c2ccccc2)COc2ccc(O)cc21", "discrete_label": "TRUE"}

// query Record request — test call for COc1cc(OC)cc(C(=O)Nc2cnc(Nc3ccc(N4CCOCC4)nc3)nc2Oc2ccc(C(F)(F)F)cc2)c1
// result FALSE

// query For CCN=c1sc2c(n1NC(=O)c1cc3ccc1CCc1ccc(cc1)CC3)C(=O)c1ccccc1C2=O , which call appears in the assay record?
// result TRUE

// query In this assay, the call recorded for CCCc1cc(CCC)n2nc(N)nc2n1 was what?
// result FALSE

====

Tested on: LOX IMVI melanoma
Experiment: NCI-60 one-dose screen, 48 h
Details: 10 µM unless noted
Protocol: Growth inhibition of the LOX IMVI human tumor cell line is measured as a screen for anti-cancer activity. Cells are grown in 96 well plates and exposed to the test compound for 48 hours. Compounds are tested at a single concentration, which is 10^-5 M for most compounds. The reported endpoint is percent growth (GI% or GIPRCNT), where numbers from 0 - 100% represent growth inhibition, and numbers from -100% - 0 represent cell death. For example, a value of 40 represents 60% growth inhibition. […]
The panel holds about 83,000 compounds, 20% with a hit somewhere; the sample as a whole holds those more often. Activity calls are given as the source filed them. The calls were made as follows: active = growth percent below 10; inactive = the rest.
Would you mind answering with one of these outcomes? Y (active), N (inactive)

Here's what some known entries look like.
{"compound": "CCCCCCCCNc1ncnc2c1ncn2Cc1nnc2c3ccccc3c(Cl)nn12", "discrete_label": "N"}
{"compound": "CC/C(=C(/c1ccc(Cl)cc1)c1ccc(OCCCN(C)C)cc1)c1ccc(OC)cc1", "discrete_label": "N"}
{"compound": "CC1(C)CC(=O)C2=C(C1)OC(C(=O)c1ccccc1)C2c1cccc(Oc2ccccc2)c1 (stereo not given)", "discrete_label": "N"}

// query # lookup: test call for C#C[C@]1(O)CC[C@H]2[C@@H]3CC=C4c5sc(-c6cccc(C)c6)nc5CC[C@]4(C)[C@H]3CC[C@@]21C
// result N

// query For CC(C)(C)c1ccc(C(=O)Nc2sc3c(c2C#N)CCC(=O)C3)cc1 , which call appears in the assay record?
// result N

// query // return assay outcome for COc1ccc(-c2cc(-c3ccc(Cl)cc3)c(C#N)c(=O)n2CCCCC(=O)NO)cc1
// result Y
